Molecular target: human GLUT1 (Homo sapiens, UniProt P11166)
Construct: expressed in transfected cells
Sequence (P11166 whole entry): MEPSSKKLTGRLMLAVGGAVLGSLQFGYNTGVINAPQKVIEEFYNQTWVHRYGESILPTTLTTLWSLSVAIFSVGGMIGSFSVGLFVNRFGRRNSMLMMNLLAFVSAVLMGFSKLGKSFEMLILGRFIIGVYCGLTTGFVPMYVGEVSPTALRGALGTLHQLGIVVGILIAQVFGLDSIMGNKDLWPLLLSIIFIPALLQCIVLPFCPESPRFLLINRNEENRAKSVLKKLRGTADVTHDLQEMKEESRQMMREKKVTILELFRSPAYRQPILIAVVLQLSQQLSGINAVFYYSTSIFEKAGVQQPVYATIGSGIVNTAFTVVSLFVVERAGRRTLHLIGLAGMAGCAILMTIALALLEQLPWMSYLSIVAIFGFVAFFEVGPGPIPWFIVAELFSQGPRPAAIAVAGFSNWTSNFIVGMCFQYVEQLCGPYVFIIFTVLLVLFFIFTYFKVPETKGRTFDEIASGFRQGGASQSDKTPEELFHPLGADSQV
Experiment: [3H]-deoxy-D-glucose uptake assay, GLUT1
Format: cell-based
Conditions: [3H]-deoxy-D-glucose uptake in HEK293 cells stably expressing human GLUT1
Experimental Endpoint: GLUT1 pIC50

Below, 6 molecules whose answers are already recorded.
1. COc1cccc(-c2nc3ccc(-c4ccccc4C(N)=O)cn3c2CN2CCN(C(=O)C3CCC3)CC2)c1	++ (pIC50 5.00-5.99)
2. Cc1ccc(C(=O)N2CCN(Cc3c(-c4ccc(Cl)cc4)nc4ccc(-c5ccccc5)cn34)CC2)cc1	+++ (pIC50 ≧ 6.00)
3. O=C(c1cnco1)N1CCN(Cc2c(-c3ccc(Cl)cc3)nc3ccc(-c4ccccc4)cn23)CC1	+++ (pIC50 ≧ 6.00)
4. N#Cc1ccc(-c2nc3ccc(-c4ccccc4)cn3c2CN2CCOCC2)cc1	+− (pIC50 < 4.00)
5. CN1CCN(C(=O)c2c(-c3ccc(Cl)cc3)nc3ccc(-c4ccccc4)cn23)CC1	+− (pIC50 < 4.00)
6. O=C(c1ccncc1)N1CCN(Cc2c(-c3ccc(Cl)cc3)nc3ccc(-c4ncon4)cn23)CC1	+++ (pIC50 ≧ 6.00)

Hey, can you go through the list below and give me GLUT1 pIC50 for every item?
1. O=C(c1ccnnc1)N1CCN(Cc2c(-c3ccc(Cl)cc3Cl)nc3cnc(C4CC4)cn23)CC1
2. Cc1ccc2nc(-c3ccccc3)c(CN3CCSCC3)n2c1
3. c1ccc(-c2ccc3nc(-c4ccncc4)c(CN4CCOCC4)n3c2)cc1
4. COc1cccc(-c2nc3ccc(-c4ccccc4)cn3c2CN2CCN(C(=O)c3cccc(F)c3)CC2)c1
5. N#Cc1ccc2nc(-c3ccc(Cl)cc3)c(CN3CCOCC3)n2c1
6. CC(=O)N1CCN(Cc2c(-c3ccc(Cl)cc3Cl)nc3cnc(NS(C)(=O)=O)cn23)CC1
7. CCC(=O)N1CCN(Cc2c(-c3ccc(Cl)cc3)nc3cnc(C4CC4)cn23)CC1
8. O=C(c1cscn1)N1CCN(Cc2c(-c3ccc(Cl)cc3Cl)nc3cnc(C4CC4)cn23)CC1

["+++ (pIC50 ≧ 6.00)", "+− (pIC50 < 4.00)", "+− (pIC50 < 4.00)", "+++ (pIC50 ≧ 6.00)", "+− (pIC50 < 4.00)", "+− (pIC50 < 4.00)", "+++ (pIC50 ≧ 6.00)", "+++ (pIC50 ≧ 6.00)"]

Hey, can you go through the list below and give me GLUT1 pIC50 for every item?
1. COCC(=O)N1CCN(Cc2c(-c3ccc(Cl)cc3Cl)nc3ccc(NS(C)(=O)=O)cn23)CC1
2. CC(C)C(=O)N1CCN(Cc2c(-c3cccc([N+](=O)[O-])c3)nc3ccc(-c4ccccc4)cn23)CC1

1. +++ (pIC50 ≧ 6.00)
2. ++ (pIC50 5.00-5.99)

====

Target: human GLUT2 (Homo sapiens, UniProt P11168)
Construct: expressed in transfected cells
Sequence (P11168 whole entry): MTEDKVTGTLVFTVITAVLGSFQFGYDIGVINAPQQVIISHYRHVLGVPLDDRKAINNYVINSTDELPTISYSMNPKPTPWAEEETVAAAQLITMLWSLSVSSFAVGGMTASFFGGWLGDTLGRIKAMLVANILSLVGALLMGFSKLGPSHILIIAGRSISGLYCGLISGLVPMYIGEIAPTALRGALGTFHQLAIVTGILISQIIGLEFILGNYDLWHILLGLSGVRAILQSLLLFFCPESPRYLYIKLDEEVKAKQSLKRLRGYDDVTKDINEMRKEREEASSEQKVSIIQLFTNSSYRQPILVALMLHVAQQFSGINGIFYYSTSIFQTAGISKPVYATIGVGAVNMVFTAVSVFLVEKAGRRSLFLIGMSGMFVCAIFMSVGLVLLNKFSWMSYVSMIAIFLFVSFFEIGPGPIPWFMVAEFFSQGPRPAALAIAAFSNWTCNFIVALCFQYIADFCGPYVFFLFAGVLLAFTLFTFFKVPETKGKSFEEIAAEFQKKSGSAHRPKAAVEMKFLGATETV
Experiment: [3H]-deoxy-D-glucose uptake assay, GLUT2
Assay type: cell-based
Settings: [3H]-deoxy-D-glucose uptake in HEK293 cells stably expressing human GLUT2
Experimental Endpoint: GLUT2 pIC50

1) O=S1(=O)CCN(Cc2c(-c3ccc(Cl)cc3)nc3ccc(-c4ccccc4)cn23)CC1	+− (pIC50 < 4.00)
2) CCS(=O)(=O)N(C)c1ccc2nc(-c3ccc(Cl)cc3)c(CN3CCN(C(C)=O)CC3)n2c1	++ (pIC50 5.00-5.99)
3) O=C(c1cnccn1)N1CCN(Cc2c(-c3ccc(Cl)cc3Cl)nc3cnc(C4CC4)cn23)CC1	+++ (pIC50 ≧ 6.00)
4) CCNS(=O)(=O)c1ccc2nc(-c3ccc(Cl)cc3)c(CN3CCN(C(C)=O)CC3)n2c1	++ (pIC50 5.00-5.99)
5) COCC(=O)N1CCN(Cc2c(-c3ccc(Cl)cc3)nc3ccc(N(C)S(C)(=O)=O)cn23)CC1	++ (pIC50 5.00-5.99)
6) CS(=O)(=O)Nc1ccc2nc(-c3ccc(Cl)cc3Cl)c(CN3CCNC(=O)C3)n2c1	++ (pIC50 5.00-5.99)
7) Fc1cccc(F)c1-c1ccc2nc(-c3ccc(Cl)cc3)c(CN3CCOCC3)n2c1	+++ (pIC50 ≧ 6.00)
8) CC(=O)N1CCN(Cc2c(-c3ccc(Cl)cc3)nc3cnc(-c4ccccc4C#N)cn23)CC1	+++ (pIC50 ≧ 6.00)

Hey, can you go through the list below and give me GLUT2 pIC50 for every item?
1. CS(=O)(=O)Nc1ccc2nc(-c3ccc(Cl)cc3)c(CN3CCn4ncnc4C3)n2c1
2. CC(=O)N1CCN(Cc2c(-c3ccc(Cl)cc3)nc3ccc(S(C)(=O)=O)cn23)CC1
3. Clc1ccc(-c2nc3ccc(C4COC4)cn3c2CN2CCOCC2)cc1
4. O=C(C1COC1)N1CCN(Cc2c(-c3ccc(Cl)cc3)nc3ccc(-c4ccccc4)cn23)CC1
5. CC(=O)N1CCN(Cc2c(-c3ccc(Cl)cc3Cl)nc3ccc(N(C)S(C)(=O)=O)cn23)CC1
6. CC(C)c1cn2c(CN3CCOCC3)c(-c3ccc(Cl)cc3)nc2cn1

1: ++ (pIC50 5.00-5.99); 2: +− (pIC50 < 4.00); 3: +− (pIC50 < 4.00); 4: +++ (pIC50 ≧ 6.00); 5: +++ (pIC50 ≧ 6.00); 6: +++ (pIC50 ≧ 6.00)

Hey, can you go through the list below and give me GLUT2 pIC50 for every item?
1. CC(=O)N1CCN(Cc2c(-c3ccc(Cl)cc3)nc3ccc(S(=O)(=O)N(C)C)cn23)CC1
2. Clc1ccc(-c2nc3cnc(C4CC4)cn3c2CN2CCn3ncnc3C2)cc1

["++ (pIC50 5.00-5.99)", "+++ (pIC50 ≧ 6.00)"]
